TARGET OR TEST SYSTEM: T1, pKal (Homo sapiens, UniProt P03952)
T1 construct: two disulfide linked polypeptides; a heavy chain of approximately 52 kDa and a catalytic domain of approximately 34 kDa; host or cells: human plasma
T1 sequence (P03952 391-638 limits assumed): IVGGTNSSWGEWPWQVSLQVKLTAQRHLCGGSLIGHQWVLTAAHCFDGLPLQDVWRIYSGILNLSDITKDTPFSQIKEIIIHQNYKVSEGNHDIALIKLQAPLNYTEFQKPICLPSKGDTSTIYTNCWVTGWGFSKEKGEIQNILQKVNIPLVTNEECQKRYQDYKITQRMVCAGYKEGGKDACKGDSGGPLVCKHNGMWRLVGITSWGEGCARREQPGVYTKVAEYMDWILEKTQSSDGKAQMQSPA
T1 sequence (P03952 20-390 partner limits assumed): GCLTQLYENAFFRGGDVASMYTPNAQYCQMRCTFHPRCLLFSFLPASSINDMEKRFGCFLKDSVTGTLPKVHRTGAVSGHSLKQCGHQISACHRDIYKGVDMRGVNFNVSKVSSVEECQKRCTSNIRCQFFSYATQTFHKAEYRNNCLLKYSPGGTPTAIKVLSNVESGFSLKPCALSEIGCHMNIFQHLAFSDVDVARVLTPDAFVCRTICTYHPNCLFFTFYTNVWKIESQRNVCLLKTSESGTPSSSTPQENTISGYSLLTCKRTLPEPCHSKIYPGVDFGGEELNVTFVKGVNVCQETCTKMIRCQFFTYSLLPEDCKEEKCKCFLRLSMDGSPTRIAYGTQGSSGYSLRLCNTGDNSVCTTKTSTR
MEASUREMENT NOTES: Fab fragments (small scale) tested for inhibition against human pKal in an in vitro protease cleavage assay
Format: biochemical
CONDITION INFO: Table 9
Description: By DNA sequencing, we recovered 61 of the possible 80 antibodies (Table 9). These antibodies were produced as Fab fragments in small scale (˜20 μg) and tested for inhibition against human pKal in an in vitro protease cleavage assay using Pro-Phe-Arg-aminomethylcoumarin as the synthetic peptide substrate. […] The antibodies were analyzed by SDS-PAGE to determine which of the inhibitory mutants are not cleaved by the host cell protease(s) (data not shown).
MEASUREMENT NAME: Inhibit as a Fab?

MOLECULE	MEASUREMENT NAME	REPORTED
X66-H11: single point mutation of M142-H08 (P1); HV-CDR3 GGLLLWFTELKSNYFDY (antibody, V domains shown) VL: QDIQMTQSPSSLSAFVGDRVTITCRASQPIDNYLNWYHQKPGKAPKLLIYAASRLQSGVPSRLSGSGFGTDFTLTISSLQPEDFGNYYCQQSYTVPYTFGGGTKVEIR VH: EVQLLESGGGLVQPGGSLRLSCAASGFTFSAYSMIWVRQAPGKGLEWVSYIRPSGGRTTYADSVKGRFTISRDNSKNTLYLQMNSLRAEDTAVYYCARGGLLLWFTELKSNYFDYWGQGTLVTVSSASTKGPSVFPLAPSSKS	Inhibit as a Fab?	No
X66-H04: single point mutation of M142-H08 (P1); HV-CDR3 GGLLLWFFELKSNYFDY (antibody, V domains shown) VL: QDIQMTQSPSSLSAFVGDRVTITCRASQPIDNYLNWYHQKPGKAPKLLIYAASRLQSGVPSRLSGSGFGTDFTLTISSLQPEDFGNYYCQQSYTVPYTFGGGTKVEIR VH: EVQLLESGGGLVQPGGSLRLSCAASGFTFSAYSMIWVRQAPGKGLEWVSYIRPSGGRTTYADSVKGRFTISRDNSKNTLYLQMNSLRAEDTAVYYCARGGLLLWFFELKSNYFDYWGQGTLVTVSSASTKGPSVFPLAPSSKS	Inhibit as a Fab?	No
X67-F10: single point mutation of M142-H08 (P2); HV-CDR3 GGLLLWTRELKSNYFDY (antibody, V domains shown) VL: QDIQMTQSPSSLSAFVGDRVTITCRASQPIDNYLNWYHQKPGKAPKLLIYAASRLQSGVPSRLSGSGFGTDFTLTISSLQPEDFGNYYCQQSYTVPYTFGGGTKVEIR VH: EVQLLESGGGLVQPGGSLRLSCAASGFTFSAYSMIWVRQAPGKGLEWVSYIRPSGGRTTYADSVKGRFTISRDNSKNTLYLQMNSLRAEDTAVYYCARGGLLLWTRELKSNYFDYWGQGTLVTVSSASTKGPSVFPLAPSSKS	Inhibit as a Fab?	Yes
X68-E03: single point mutation of M142-H08 (P3); HV-CDR3 GGLLLEFRELKSNYFDY (antibody, V domains shown) VL: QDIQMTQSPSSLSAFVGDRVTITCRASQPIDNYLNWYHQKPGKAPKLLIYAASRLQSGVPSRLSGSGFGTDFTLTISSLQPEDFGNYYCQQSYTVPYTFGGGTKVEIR VH: EVQLLESGGGLVQPGGSLRLSCAASGFTFSAYSMIWVRQAPGKGLEWVSYIRPSGGRTTYADSVKGRFTISRDNSKNTLYLQMNSLRAEDTAVYYCARGGLLLEFRELKSNYFDYWGQGTLVTVSSASTKGPSVFPLAPSSKS	Inhibit as a Fab?	No
